Reported total protein half-life in vivo by item:
assay: total protein half-life in vivo (active degradation + dilution); higher = more stable protein; details: wild type E. coli NCM3722; growth: C-lim chemostat; doubling time 3 h
Report as a plain number; the unit h is understood.

Solved entries (count: 3):
MSKRLPPLNALRVFDAAARHLSFTRAAEELFVTQAAVSHQIKSLEDFLGLKLFRRRNRSLLLTEEGQSYFLDIKEIFSQLTEATRKLQARSAKGALTVSLLPSFAIHWLVPRLSSFNSAYPGIDVRIQAVDRQEDKLADDVDVAIFYGRGNWPGLRVEKLYAEYLLPVCSPLLLTGEKPLKTPEDLAKHTLLHDASRRDWQTYTRQLGLNHINVQQGPIFSHSAMVLQAAIHGQGVALANNVMAQSEIEAGRLVCPFNDVLVSKNAFYLVCHDSQAELGKIAAFRQWILAKAAAEQEKFRFRYEQ [P0A9F6] :: 3.2
MSFMVSEEVTVKEGGPRMIVTGYSSGMVECRWYDGYGVKREAFHETELVPGEGSRSAEEV :: 0.36
MTTKKADYIWFNGEMVRWEDAKVHVMSHALHYGTSVFEGIRCYDSHKGPVVFRHREHMQRLHDSAKIYRFPVSQSIDELMEACRDVIRKNNLTSAYIRPLIFVGDVGMGVNPPAGYSTDVIIAAFPWGAYLGAEALEQGIDAMVSSWNRAAPNTIPTAAKAGGNYLSSLLVGSEARRHGYQEGIALDVNGYISEGAGENLFEVKDGVLFTPPFTSSALPGITRDAIIKLAKELGIEVREQVLSRESLYLADEVFMSGTAAEITPVRSVDGIQVGEGRCGPVTKRIQQAFFGLFTGETEDKWGWLDQVNQ [P0AB80] :: 3.24

Look up total protein half-life in vivo of MATIKDVAKRANVSTTTVSHVINKTRFVAEETRNAVWAAIKELHYSPSAVARSLKVNHTKSIGLLATSSEAAYFAEIIEAVEKNCFQKGYTLILGNAWNNLEKQRAYLSMMAQKRVDGLLVMCSEYPEPLLAMLEEYRHIPMVVMDWGEAKADFTDAVIDNAFEGGYMAGRYLIERGHREIGVIPGPLERNTGAGRLAGFMKAMEEAMIKVPESWIVQGDFEPESGYRAMQQILSQPHRPTAVFCGGDIMAMGALCAADEMGLRVPQDVSLIGYDNVRNARYFTPALTTIHQPKDSLGETAFNMLLDRIVNKREEPQSIEVHPRLIERRSVADGPFRDYRR [P0ACP7] and report it.
3.02

Tell me measured total protein half-life in vivo for MSLTLTLTGTGGAQGVPAWGCECAACARARRSPQYRRQPCSGVVKFNDAITLIDAGLHDLADRWSPGSFQQFLLTHYHMDHVQGLFPLRWGVGDPIPVYGPPDEQGCDDLFKHPGLLDFSHTVEPFVVFDLQGLQVTPLPLNHSKLTFGYLLETAHSRVAWLSDTAGLPEKTLKFLRNNQPQVMVMDCSHPPRADAPRNHCDLNTVLALNQVIRSPRVILTHISHQFDAWLMENALPSGFEVGFDGMEIGVA please.
2.37

In one line, give reported total protein half-life in vivo of the entry MGQLIDGVWHDTWYDTKSTGGKFQRSASAFRNWLTADGAPGPTGTGGFIAEKDRYHLYVSLACPWAHRTLIMRKLKGLEPFISVSVVNPLMLENGWTFDDSFPGATGDTLYQNEFLYQLYLHADPHYSGRVTVPVLWDKKNHTIVSNESAEIIRMFNTAFDALGAKAGDYYPPALQTKIDELNGWIYDTVNNGVYKAGFATSQEAYDEAVAKVFESLARLEQILGQHRYLTGNQLTEADIRLWTTLVRFDPVYVTHFKCDKHRISDYLNLYGFLRDIYQMPGIAETVNFDHIRNHYFRSHKTINPTGIISIGPWQDLDEPHGRDVRFG .
3.53

====

test: total protein half-life in vivo (active degradation + dilution); higher = more stable protein; conditions: wild type E. coli NCM3722; growth: C-lim chemostat; doubling time 6 h
ASSAY ENDPOINT: total protein half-life in vivo (h)
Provide only the numeric value, understood in h.

The examples below pair each entry with its known result.
MNDIAHNLAQVRDKISAAATRCGRSPEEITLLAVSKTKPASAIAEAIDAGQRQFGENYVQEGVDKIRHFQELGVTGLEWHFIGPLQSNKSRLVAEHFDWCHTIDRLRIATRLNDQRPAELPPLNVLIQINISDENSKSGIQLAELDELAAAVAELPRLRLRGLMAIPAPESEYVRQFEVARQMAVAFAGLKTRYPHIDTLSLGMSDDMEAAIAAGSTMVRIGTAIFGARDYSKK :: 5.71
MTIKLIVGLANPGAEYAATRHNAGAWFVDLLAERLRAPLREEAKFFGYTSRVTLGGEDVRLLVPTTFMNLSGKAVAAMASFFRINPDEILVAHDELDLPPGVAKFKLGGGHGGHNGLKDIISKLGNNPNFHRLRIGIGHPGDKNKVVGFVLGKPPVSEQKLIDEAIDEAARCTEMWFTDGLTKATNRLHAFKAQ [P0A7D1] :: 6.09
MEFAFYICGLIAILATLRVITHTNPVHALLYLIISLLAISGVFFSLGAYFAGALEIIVYAGAIMVLFVFVVMMLNLGGSEIEQERQWLKPQVWIGPAILSAIMLVVIVYAILGVNDQGIDGTPISAKAVGITLFGPYVLAVELASMLLLAGLVVAFHVGREERAGEVLSNRKDDSAKRKTEEHA [P0AFE0] :: 6.7
MPRFAANLSMMFTEVPFIERFAAARKAGFDAVEFLFPYNYSTLQIQKQLEQNHLTLALFNTAPGDINAGEWGLSALPGREHEAHADIDLALEYALALNCEQVHVMAGVVPAGEDAERYRAVFIDNIRYAADRFAPHGKRILVEALSPGVKPHYLFSSQYQALAIVEEVARDNVFIQLDTFHAQKVDGNLTHLIRDYAGKYAHVQIAGLPDRHEPDDGEINYPWLFRLFDEVGYQGWIGCEYKPRGLTEEGLGWFDAWR :: 3.68

// fetch total protein half-life in vivo given entry MSSRNNPARVAIVMGSKSDWATMQFAAEIFEILNVPHHVEVVSAHRTPDKLFSFAESAEENGYQVIIAGAGGAAHLPGMIAAKTLVPVLGVPVQSAALSGVDSLYSIVQMPRGIPVGTLAIGKAGAANAALLAAQILATHDKELHQRLNDWRKAQTDEVLENPDPRGAA [P0AG18]
5.47

Answer with reported total protein half-life in vivo of MENLARFLSTTLKQLRQQRGWSLSRLAEATGVSKAMLGQIERNESSPTVATLWKIATGLNVPFSTFISPPQSATPSVYDPQQQAMVITSLFPYDPQLCFEHFSIQMASGAISESTPHEKGVIEHVVVIDGQLDLCVDGEWQTLNCGEGVRFAADVTHIYRNGGEQTVHFHSLIHYPRS
5.27

Look up and report measured total protein half-life in vivo for this entry: MTGMTNVTKLASEPSGQEFLVFTLGDEEYGIDILKVQEIRGYDQVTRIANTPAFIKGVTNLRGVIVPIVDLRIKFSQVDVDYNDNTVVIVLNLGQRVVGIVVDGVSDVLSLTAEQIRPAPEFAVTLSTEYLTGLGALGDRMLILVNIEKLLNSEEMALLDSAASEVA [P0A964]
1.86

====

experiment: total protein half-life in vivo (active degradation + dilution); higher = more stable protein; conditions: E. coli NCM3722 delta-smpB; growth: N-lim chemostat; doubling time 6 h
# if value of total protein half-life in vivo reaches 5 h, tag class 1; if it stays below, tag class 0

A selection of reference data follows.
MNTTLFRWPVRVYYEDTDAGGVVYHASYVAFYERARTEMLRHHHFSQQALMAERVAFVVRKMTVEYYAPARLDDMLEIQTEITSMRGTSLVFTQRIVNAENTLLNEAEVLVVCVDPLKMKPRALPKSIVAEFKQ [P0A8Z3] :: class 1
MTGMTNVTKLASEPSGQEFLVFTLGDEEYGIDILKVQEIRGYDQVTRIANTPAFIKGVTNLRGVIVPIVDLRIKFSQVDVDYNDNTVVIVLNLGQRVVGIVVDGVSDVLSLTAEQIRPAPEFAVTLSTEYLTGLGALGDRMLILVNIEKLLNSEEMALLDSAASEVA [P0A964] :: class 1
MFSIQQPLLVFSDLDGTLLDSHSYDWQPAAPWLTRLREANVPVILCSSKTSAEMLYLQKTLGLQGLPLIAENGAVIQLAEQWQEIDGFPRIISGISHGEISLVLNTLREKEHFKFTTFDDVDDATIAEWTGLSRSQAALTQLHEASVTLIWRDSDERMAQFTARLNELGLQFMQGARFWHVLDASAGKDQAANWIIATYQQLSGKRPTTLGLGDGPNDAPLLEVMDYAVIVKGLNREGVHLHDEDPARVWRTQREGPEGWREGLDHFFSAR :: class 0
MMNSTNKLSVIIPLYNAGDDFRTCMESLITQTWTALEIIIINDGSTDNSVEIAKYYAENYPHVRLLHQANAGASVARNRGIEVATGKYVAFVDADDEVYPTMYETLMTMALEDDLDVAQCNADWCFRETGETWQSIPTDRLRSTGVLTGPDWLRMGLSSRRWTHVVWMGVYRRDVIVKNNIKFIAGLHHQDIVWTTEFMFNALRARYTEQSLYKYYLHNTSVSRLHRQGNKNLNYQRHYIKITRLLEKLNRNYADKIMIYPEFHQQITYEALRVCHAVRKEPDILTRQRMIAEIFTSGMYKRLITNVRSVKVGYQALLWSFRLWQWRDKTRSHHRITRSAFNLR :: class 0
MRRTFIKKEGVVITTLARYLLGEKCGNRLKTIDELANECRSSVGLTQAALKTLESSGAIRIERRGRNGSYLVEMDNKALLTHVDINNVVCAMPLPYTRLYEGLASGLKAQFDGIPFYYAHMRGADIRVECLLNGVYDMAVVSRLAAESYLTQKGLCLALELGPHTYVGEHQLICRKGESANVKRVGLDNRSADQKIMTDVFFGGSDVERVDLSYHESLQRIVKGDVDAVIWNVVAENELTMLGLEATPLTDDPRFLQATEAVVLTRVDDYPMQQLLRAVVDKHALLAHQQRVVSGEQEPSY :: class 0
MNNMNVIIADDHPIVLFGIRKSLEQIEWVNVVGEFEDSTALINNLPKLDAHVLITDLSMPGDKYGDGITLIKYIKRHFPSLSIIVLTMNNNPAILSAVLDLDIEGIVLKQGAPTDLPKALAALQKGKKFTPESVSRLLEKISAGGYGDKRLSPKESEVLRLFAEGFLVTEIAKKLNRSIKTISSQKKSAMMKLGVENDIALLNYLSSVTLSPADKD [P0DMC7] :: class 0
MSRPLLQLALDHSSLEAAQRDVTLLKDSVDIVEAGTILCLNEGLGAVKALREQCPDKIIVADWKVADAGETLAQQAFGAGANWMTIICAAPLATVEKGHAMAQRCGGEIQIELFGNWTLDDARDWHRIGVRQAIYHRGRDAQASGQQWGEADLARMKALSDIGLELSITGGITPADLPLFKDIRVKAFIAGRALAGAANPAQVAGDFHAQIDAIWGGARA :: class 0
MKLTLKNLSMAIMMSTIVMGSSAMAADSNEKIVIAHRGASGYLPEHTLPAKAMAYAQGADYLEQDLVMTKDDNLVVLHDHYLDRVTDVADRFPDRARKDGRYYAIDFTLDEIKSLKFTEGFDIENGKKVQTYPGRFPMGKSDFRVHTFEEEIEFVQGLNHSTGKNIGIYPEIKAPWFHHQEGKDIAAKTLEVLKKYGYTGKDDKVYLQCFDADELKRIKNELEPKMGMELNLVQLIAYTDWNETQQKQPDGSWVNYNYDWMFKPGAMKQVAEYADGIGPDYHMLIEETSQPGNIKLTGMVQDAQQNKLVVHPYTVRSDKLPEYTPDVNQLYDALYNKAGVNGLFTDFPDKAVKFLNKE :: class 0
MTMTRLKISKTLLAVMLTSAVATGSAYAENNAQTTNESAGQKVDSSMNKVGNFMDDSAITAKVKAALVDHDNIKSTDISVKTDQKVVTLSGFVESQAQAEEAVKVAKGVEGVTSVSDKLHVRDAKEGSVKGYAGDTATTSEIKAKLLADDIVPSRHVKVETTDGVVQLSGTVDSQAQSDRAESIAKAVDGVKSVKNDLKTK [P0AFH8] :: class 1
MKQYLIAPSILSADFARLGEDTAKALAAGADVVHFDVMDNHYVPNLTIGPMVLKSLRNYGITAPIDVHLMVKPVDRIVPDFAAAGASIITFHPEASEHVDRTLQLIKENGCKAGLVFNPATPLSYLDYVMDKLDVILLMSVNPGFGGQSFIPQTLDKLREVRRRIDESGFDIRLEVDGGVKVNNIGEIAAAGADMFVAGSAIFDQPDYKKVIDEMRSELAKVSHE [P0AG07] :: class 0

Identify whether the reported total protein half-life in vivo of the following sequence is 5 h or greater: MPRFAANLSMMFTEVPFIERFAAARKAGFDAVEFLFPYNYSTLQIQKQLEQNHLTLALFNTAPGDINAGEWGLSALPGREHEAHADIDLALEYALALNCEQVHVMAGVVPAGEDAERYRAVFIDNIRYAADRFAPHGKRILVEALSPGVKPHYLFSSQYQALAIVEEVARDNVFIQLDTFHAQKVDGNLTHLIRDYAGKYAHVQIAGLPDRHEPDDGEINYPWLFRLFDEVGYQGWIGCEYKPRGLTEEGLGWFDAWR
class 0
